- MEASUREMENT DESCRIPTION: chemical genetic growth profiling, strain panel (AID 1159580);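 also: tested at 20 µM; growth read once vehicle control cultures reached saturation at 30 °C; 1 = growth at the plate median or of vehicle wells; lower values mean less growth of the strain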
- CONDITION SUMMARY: S. cerevisiae deletion strains, growth OD, locus YGL167C, strain pmr1, hits give low values
About 2,000 (36%) of roughly 5,500 compounds were called active. Another 18% or so got no clear call; they are omitted. The list shows a part of the results.
Label true (1) when normalized growth is strictly below 1; at or above that, label false (0).

Sample answers from the record:
- COMPOUND: "CC(C)c1ccc2c(c1O)CC[C@H]1C3=C(CC[C@]21C)C(=O)OC3"
  ASSIGNED LABEL: "true (1)"
- COMPOUND: "O=C1CC[C@]23C=CC(=O)NCCCCNCCCNC(=O)/C=C/c4ccc(c2c4)O[C@@H]3C1"
  ASSIGNED LABEL: "false (0)"

Item CC(=O)Nc1ccc(O)cc1 : normalized growth beneath 1, strictly?
false (0)

Item FC(F)(F)C(Cl)Br (stereo unspecified) : normalized growth beneath 1, strictly?
false (0)

# strict comparison: is reported normalized growth < 1? input = Nc1ccc(C(=O)Oc2ccccc2)c(O)c1
true (1)

Determine whether this compound shows normalized growth lower than 1 (ties excluded): CC(=O)O.CC(=O)O.[Cd]
true (1)
